Molecular target: GHSR1a (Homo sapiens, UniProt Q92847)
Sequence (Q92847 whole entry): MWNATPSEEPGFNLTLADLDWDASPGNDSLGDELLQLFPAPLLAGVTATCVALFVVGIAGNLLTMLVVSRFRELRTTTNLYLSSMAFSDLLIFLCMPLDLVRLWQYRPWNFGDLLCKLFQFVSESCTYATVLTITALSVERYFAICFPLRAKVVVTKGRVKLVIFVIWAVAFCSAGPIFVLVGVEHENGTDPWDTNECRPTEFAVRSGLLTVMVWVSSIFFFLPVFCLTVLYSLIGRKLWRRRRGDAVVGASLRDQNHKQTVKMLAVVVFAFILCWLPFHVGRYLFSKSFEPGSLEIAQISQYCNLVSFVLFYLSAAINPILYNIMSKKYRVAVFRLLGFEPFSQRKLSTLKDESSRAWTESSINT
Test: Calcium FLIPR assay, GHSR-1a antagonism (reduction of ghrelin response)
Settings: HEK293/GHSR1a cells, ghrelin 10 nM
# IC50 per record follows
All answers are understood in nM, so give the number only.

Example compounds with recorded IC50:
[
  {
    "compound": "CC(NC(=O)N(C)C1CCN(C)CC1)c1ccc(C#CC2CC2)c(Cl)c1F (centres unmarked)",
    "assay_readout": "IC50",
    "quantity_unit": "nM",
    "assay_value": 256
  },
  {
    "compound": "CC(NC(=O)N(C)C1CCN(C)CC1)c1ccc(-c2ccc(C#N)cc2)c(Cl)c1Cl (centres unmarked)",
    "assay_readout": "IC50",
    "quantity_unit": "nM",
    "assay_value": 149
  },
  {
    "compound": "COC(=O)c1ccc(C(C)NC(=O)N(C)C2CCN(C)CC2)c(Cl)c1Cl (centres unmarked)",
    "assay_readout": "IC50",
    "quantity_unit": "nM",
    "assay_value": 20
  },
  {
    "compound": "CC(NC(=O)N(C)C1CCN(C)CC1)c1ccc(C#Cc2ccsc2)c(Cl)c1Cl (centres unmarked)",
    "assay_readout": "IC50",
    "quantity_unit": "nM",
    "assay_value": 7
  },
  {
    "compound": "COc1ccc(C(C)(C#N)NC(=O)N(C)C2CCN(C)CC2)c(Cl)c1Cl (centres unmarked)",
    "assay_readout": "IC50",
    "quantity_unit": "nM",
    "assay_value": 34
  }
]

**Query** Return IC50 for the following compound: CC(NC(=O)N(C)C1CCN(C)CC1)c1ccc(C#CCO)c(Cl)c1Cl (centres unmarked)
**Result** 12

**Query** Return IC50 for the following compound: CC(NC(=O)N(C)C1CCN(C)CC1)c1ccc(-c2nc(N3CCOCC3)nc(N3CCOCC3)n2)c(Cl)c1Cl (centres unmarked)
**Result** 826

----------
Test system: C57BL/6J mice
Assay: Food intake test in mouse (GHSR1a antagonists)
Type: in vivo
Details: i.p. 10 mg/kg
Experimental: Male C57BL/6J mice, 18-22 g body weight, were fasted overnight (16 h before compound administration) and placed in a regular light dark cycle (6:00-18:00 light/18:00-6:00 dark). After 1 wk acclimation, animals were sorted into two groups (n=6 each, 2 per cage) based on body weight. […] The cumulative food intake was evaluated at 1, 2, 4, 8 and 24 hrs after drug or vehicle treatment. Food intake was measured by subtracting uneaten food from the initial premeasured food.
assay_readout: Mouse Food Intake, result in words

Example compounds with recorded Mouse Food Intake, result in words:
[
  {
    "compound": "CC(NC(=O)N(C)C1CCN(C)CC1)c1ccc(-c2cncc(C#N)c2)c(Cl)c1Cl (centres unmarked)",
    "Mouse Food Intake, result in words": "NSE"
  },
  {
    "compound": "Cc1noc(-c2ccc(C(C)NC(=O)N(C)C3CCN(C)CC3)c(Cl)c2Cl)n1 (centres unmarked)",
    "Mouse Food Intake, result in words": "NSE (10 mg/kg)"
  },
  {
    "compound": "Cc1cncc(-c2ccc(C(C)NC(=O)N(C)C3CCN(C)CC3)c(Cl)c2Cl)c1 (centres unmarked)",
    "Mouse Food Intake, result in words": "NSE (10 mg/kg)"
  },
  {
    "compound": "CC(NC(=O)N(C)C1CCN(C)CC1)c1ccc(-c2cccnc2)c(Cl)c1Cl (centres unmarked)",
    "Mouse Food Intake, result in words": "NSE (10 mg/kg)"
  }
]

**Query** Answer briefly: Mouse Food Intake, result in words recorded on C57BL/6J mice for COc1cncc(-c2ccc(C(C)NC(=O)N(C)C3CCN(C)CC3)c(Cl)c2Cl)c1 (centres unmarked)
**Result** NSE (10 mg/kg)
